Measured Ki values are reported for all entries that follow.
# subject-of-test: ROCK (Homo sapiens)
# Sequence (Q13464 whole entry): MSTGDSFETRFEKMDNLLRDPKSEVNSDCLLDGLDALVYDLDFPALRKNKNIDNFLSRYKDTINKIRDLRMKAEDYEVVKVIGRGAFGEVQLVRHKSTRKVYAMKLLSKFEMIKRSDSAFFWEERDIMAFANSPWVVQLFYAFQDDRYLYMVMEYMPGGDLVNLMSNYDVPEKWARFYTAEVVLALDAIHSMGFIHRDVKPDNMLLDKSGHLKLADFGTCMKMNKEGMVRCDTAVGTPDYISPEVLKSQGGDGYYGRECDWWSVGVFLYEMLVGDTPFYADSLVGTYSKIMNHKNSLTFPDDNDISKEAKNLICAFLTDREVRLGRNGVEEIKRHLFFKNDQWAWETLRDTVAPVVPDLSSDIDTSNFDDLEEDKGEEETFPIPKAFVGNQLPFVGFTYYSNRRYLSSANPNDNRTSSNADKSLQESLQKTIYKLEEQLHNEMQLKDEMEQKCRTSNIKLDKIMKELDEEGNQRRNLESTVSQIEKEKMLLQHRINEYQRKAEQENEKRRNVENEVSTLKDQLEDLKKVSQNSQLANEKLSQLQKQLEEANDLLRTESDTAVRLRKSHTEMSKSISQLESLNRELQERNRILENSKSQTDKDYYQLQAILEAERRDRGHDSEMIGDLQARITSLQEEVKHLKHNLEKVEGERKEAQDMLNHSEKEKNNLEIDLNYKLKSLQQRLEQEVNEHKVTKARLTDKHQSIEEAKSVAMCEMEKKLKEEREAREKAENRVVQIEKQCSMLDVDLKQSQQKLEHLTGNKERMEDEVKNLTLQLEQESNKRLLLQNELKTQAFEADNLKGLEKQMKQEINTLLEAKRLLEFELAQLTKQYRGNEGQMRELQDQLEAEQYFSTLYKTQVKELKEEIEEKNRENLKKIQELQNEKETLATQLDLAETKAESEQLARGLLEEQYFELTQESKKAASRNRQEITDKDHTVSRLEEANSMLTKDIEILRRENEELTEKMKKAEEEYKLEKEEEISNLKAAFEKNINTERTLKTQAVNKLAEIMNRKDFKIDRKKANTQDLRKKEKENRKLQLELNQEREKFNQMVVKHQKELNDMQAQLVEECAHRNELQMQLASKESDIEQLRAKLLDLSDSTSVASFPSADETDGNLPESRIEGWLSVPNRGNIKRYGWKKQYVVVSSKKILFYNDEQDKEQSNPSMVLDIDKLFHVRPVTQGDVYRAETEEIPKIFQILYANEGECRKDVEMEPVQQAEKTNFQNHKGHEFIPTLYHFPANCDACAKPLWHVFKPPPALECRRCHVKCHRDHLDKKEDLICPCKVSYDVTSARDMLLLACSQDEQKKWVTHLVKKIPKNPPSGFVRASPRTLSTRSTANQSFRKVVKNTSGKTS
# assay-info: ROCK radioactive assay ("33P")
# Type: biochemical
# details: radioactive assay; average Ki if more than one determined; read-out: ROCK 33P Ki

Example compounds with recorded Ki:
C[C@@H](CO)NC(=O)c1nc(-c2c[nH]c3ncccc23)cs1 [II-182]    < 0.5 µM
CCNC(=O)Nc1nc(-c2c[nH]c3ncccc23)cs1 [II-234]    0.5 to 5 µM
O=C(Cc1ccc(F)cc1F)Nc1nc(-c2c[nH]c3ncc(F)cc23)cs1 [II-122]    < 0.5 µM
O=C(Cc1cccnc1)Nc1nc(-c2c[nH]c3ncc(F)cc23)cs1 [II-206]    < 0.5 µM
O=C(CC1CCCC1)Nc1nc(-c2c[nH]c3ncc(Br)cc23)cs1 [II-248]    0.5 to 5 µM
O=C(Cc1ccc(OCCN2CCNCC2)cc1Cl)Nc1nc(-c2c[nH]c3ncccc23)cs1 [II-108]    < 0.5 µM
O=C(Nc1nc(-c2c[nH]c3ncccc23)cs1)[C@@H]1CCCN1 [II-171]    < 0.5 µM
CS(=O)(=O)N1CCC[C@H]1C(=O)Nc1nc(-c2c[nH]c3ncccc23)cs1 [II-229]    < 0.5 µM

Exercise: # input compound: O=C(CCOc1ccccc1)Nc1nc(-c2c[nH]c3ncc(Br)cc23)cs1 [II-254] ; wanted: its Ki
Solution: < 0.5 µM

Exercise: Which Ki is listed for CNCC(=O)Nc1nc(-c2c[nH]c3ncccc23)cs1 [II-179] ?
Solution: < 0.5 µM
